Examples of binders with documented Phage binding ELISA, Anti-PSMA Fab (SEQ ID NOs: 19, 20) signal follow.
target: T1, Anti-PSMA Fab (SEQ ID NOs: 19, 20); experiment: phage ELISA; biotinylated PSMA Fab captured on neutravidin plate, clonal phage supernatant, anti-M13 HRP detection
T1 construct: Biotinylated and captured on neutravidin coated plates in the phage ELISA; also called 006 PSMA Fab
measure: Phage binding ELISA, Anti-PSMA Fab (SEQ ID NOs: 19, 20) signal

- binder: "VEHWCTPRWMCRGF (Clonal phage of the peptide-180 library, tested as crude supernatant; not shown: pIII of the bacteriophage, to which the peptide is fused) [Phage-2176]"
  numeric-readout: 1.64
- binder: "ESMLCRPVWMCVGF (Clonal phage of the peptide-180 library, tested as crude supernatant; not shown: pIII of the bacteriophage, to which the peptide is fused) [Phage-2169]"
  numeric-readout: 1.65
- binder: "YVNWCTPEWMCVGF (Clonal phage of the peptide-180 library, tested as crude supernatant; not shown: pIII of the bacteriophage, to which the peptide is fused) [Phage-2174]"
  numeric-readout: 1.64
- binder: "VQKWCVPEWMCGSW (Clonal phage of the peptide-180 library, tested as crude supernatant; not shown: pIII of the bacteriophage, to which the peptide is fused) [Phage-2167]"
  numeric-readout: 1.65
